Target: Nrg2 (UniProt P38082)
Sequence: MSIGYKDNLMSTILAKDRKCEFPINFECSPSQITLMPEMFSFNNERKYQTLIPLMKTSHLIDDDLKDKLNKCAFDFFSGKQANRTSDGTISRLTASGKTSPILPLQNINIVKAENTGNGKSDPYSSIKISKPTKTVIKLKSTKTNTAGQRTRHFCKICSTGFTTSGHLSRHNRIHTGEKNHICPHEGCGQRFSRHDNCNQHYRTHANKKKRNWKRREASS
Experiment: PBM E-score (8-mer binding enrichment) (E-score (-0.5 to 0.5)); higher = stronger / more preferred TF binding
Settings: protein concentration: 100 nM; construct: GST-full length
Whole data set: some 33,000 sequences, median “E-score (-0.5 to 0.5)” near -8e-05, cut for the highest 2% near 0.23. This excerpt belongs to a sample that is enriched for the highest values.
Attribute measured: PBM E-score
No unit in the answer, only the number.

As a guide, the following entries are already answered.
# Entry sequence, PBM E-score
measured = [
    ("ATGATCTA", 0.236),
    ("CTGATGAA", 0.0121),
    ("CCGCCCGA", 0.148),
    ("GAAATGAC", 0.249),
    ("ACCGAACC", -0.254),
]

Qu. Determine its reported PBM E-score: GAGTACTC
Ans. 0.23

Qu. Determine its reported PBM E-score: CTAGTCGA
Ans. -0.0659

Qu. Determine its reported PBM E-score: ATAGTCGA
Ans. 0.264

Qu. Determine its reported PBM E-score: GAATCAGA
Ans. 0.23

Qu. Determine its reported PBM E-score: GCTGAAAC
Ans. -0.139

Qu. Determine its reported PBM E-score: ACAGTAGA
Ans. 0.138

---

Molecular target: Nrg2 (UniProt P38082)
Sequence: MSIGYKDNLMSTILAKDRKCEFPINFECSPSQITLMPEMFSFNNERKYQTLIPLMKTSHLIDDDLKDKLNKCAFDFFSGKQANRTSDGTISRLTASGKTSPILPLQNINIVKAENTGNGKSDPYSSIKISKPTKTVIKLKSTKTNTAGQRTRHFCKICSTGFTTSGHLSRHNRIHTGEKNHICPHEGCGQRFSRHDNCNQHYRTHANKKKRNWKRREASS
Test: PBM E-score (8-mer binding enrichment) (E-score (-0.5 to 0.5)); higher = stronger / more preferred TF binding
Details: protein concentration: 100 nM; construct: GST-full length
In all, about 33,000 sequences were measured (“E-score (-0.5 to 0.5)”: median about -8e-05, highest 2% from about 0.23 on). This is one part of a sample in which the highest values are shown more often than they occur.
Attribute measured: PBM E-score

# Entry sequence, Measured value
data = [
    ("AAGAGAAA", 0.0319),
    ("AACCTGAA", -0.178),
    ("GCCCCTGA", 0.292),
    ("ATCCTGAA", 0.125),
    ("ACAGAGCT", -0.214),
]

Qu. Determine its reported PBM E-score: ACCCTGAA
Ans. 0.319

Qu. Determine its reported PBM E-score: GGCCCTGA
Ans. 0.24

Qu. Determine its reported PBM E-score: GCTTCTCA
Ans. 0.00982

Qu. Determine its reported PBM E-score: AGGGTCAT
Ans. 0.132

Qu. Determine its reported PBM E-score: CAAGTGTA
Ans. -0.0141

Qu. Determine its reported PBM E-score: ACCCTGTA
Ans. 0.347

Qu. Determine its reported PBM E-score: AGCCTGTA
Ans. -0.126

Qu. Determine its reported PBM E-score: AAGAGAAG
Ans. -0.0556

Qu. Determine its reported PBM E-score: TAACGTCA
Ans. 0.0193

Data provenance is the supplement of paper PMC3334620.
